IC50 values for the compounds below.
- measured.target: Phosphatidylinositol 4,5-bisphosphate 3-kinase catalytic subunit beta isoform (Homo sapiens)
- Sequence (P42338 whole entry, canonical isoform): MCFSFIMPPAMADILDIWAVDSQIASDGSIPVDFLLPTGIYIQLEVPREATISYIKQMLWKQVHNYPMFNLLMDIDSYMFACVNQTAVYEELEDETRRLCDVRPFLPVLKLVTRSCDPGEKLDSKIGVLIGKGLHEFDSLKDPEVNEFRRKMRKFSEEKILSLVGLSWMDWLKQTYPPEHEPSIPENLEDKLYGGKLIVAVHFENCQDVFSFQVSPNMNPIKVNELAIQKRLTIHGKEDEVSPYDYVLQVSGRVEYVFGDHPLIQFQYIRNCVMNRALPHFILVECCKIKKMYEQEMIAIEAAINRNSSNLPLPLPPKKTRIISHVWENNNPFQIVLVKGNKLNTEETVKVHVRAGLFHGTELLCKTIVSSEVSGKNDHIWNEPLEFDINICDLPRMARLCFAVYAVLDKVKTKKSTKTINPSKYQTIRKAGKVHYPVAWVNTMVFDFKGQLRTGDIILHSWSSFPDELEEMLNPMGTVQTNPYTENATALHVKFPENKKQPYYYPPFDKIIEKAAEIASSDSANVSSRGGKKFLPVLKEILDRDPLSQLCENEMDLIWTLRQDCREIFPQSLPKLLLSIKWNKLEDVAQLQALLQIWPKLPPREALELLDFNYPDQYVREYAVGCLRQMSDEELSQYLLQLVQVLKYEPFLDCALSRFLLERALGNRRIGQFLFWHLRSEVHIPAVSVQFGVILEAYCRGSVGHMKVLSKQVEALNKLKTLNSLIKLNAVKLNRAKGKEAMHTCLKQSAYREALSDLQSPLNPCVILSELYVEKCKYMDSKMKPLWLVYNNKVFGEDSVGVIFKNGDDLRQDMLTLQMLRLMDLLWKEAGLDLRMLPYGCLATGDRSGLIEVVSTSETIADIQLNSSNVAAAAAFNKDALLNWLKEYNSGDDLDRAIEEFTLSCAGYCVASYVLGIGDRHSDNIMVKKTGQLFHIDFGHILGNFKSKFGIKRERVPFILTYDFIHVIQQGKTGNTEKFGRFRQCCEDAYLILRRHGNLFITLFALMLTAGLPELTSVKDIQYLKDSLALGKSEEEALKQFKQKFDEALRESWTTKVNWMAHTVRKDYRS
- assay.name: Inhibition of PI3Kbeta (unknown origin)

smiles	IC50
C[C@H]1CC[C@@H](c2nc3cccc(Cl)c3c(=O)n2-c2cccc(F)c2)N1c1ncnc(N)c1C#N	> 1000 nM
N#Cc1c(N)ncnc1N1CC2(CC2)C[C@H]1c1nc2cccc(Cl)c2c(=O)n1-c1ccccc1	> 1000 nM
N#Cc1c(N)ncnc1N1[C@H](c2nc3cccc(Cl)c3c(=O)n2-c2ccccc2)C[C@@H]2CCCC[C@@H]21	> 1000 nM
C[C@H]1CC[C@@H](c2nc3cccc(Cl)c3c(=O)n2-c2ccccc2)N1c1ncnc(N)c1C#N	968 nM
N#Cc1c(N)ncnc1N1[C@H](c2nc3cccc(Cl)c3c(=O)n2-c2cc(F)cc(F)c2)C[C@@H]2CCCC[C@@H]21	> 1000 nM
N#Cc1c(N)ncnc1N1[C@H](c2nc3cccc(F)c3c(=O)n2-c2cc(F)cc(F)c2)C[C@@H]2CCCC[C@@H]21	> 1000 nM
N#Cc1c(N)ncnc1N1CC(F)(F)C[C@H]1c1nc2cccc(Cl)c2c(=O)n1-c1ccccc1	> 1000 nM
C[C@H]1CC[C@@H](c2nc3cccc(Cl)c3c(=O)n2-c2cccc(F)c2)N1c1ncnc2[nH]cnc12	375 nM
C=C1C[C@@H](c2nc3cccc(Cl)c3c(=O)n2-c2ccccc2)N(c2ncnc(N)c2C#N)C1	819 nM

###

- assay.name: MRT in Sprague-Dawley rat at 5 mg/kg, iv incubated for 5 to 24 hrs by LC-MS/MS analysis
- Format: ADME, organism-based
- settings: in vivo, time 5-24 hrs
measurement.type: MRT (h)

smiles	measurement.type	quantitative.result
C[C@H]1CC[C@@H](c2nc3cccc(Cl)c3c(=O)n2-c2cccc(F)c2)N1c1ncnc2[nH]cnc12	MRT	2.53

###

- measured.target: Phosphatidylinositol 4,5-bisphosphate 3-kinase catalytic subunit alpha isoform (Homo sapiens, UniProt P42336)
- Sequence (P42336 whole entry, canonical isoform): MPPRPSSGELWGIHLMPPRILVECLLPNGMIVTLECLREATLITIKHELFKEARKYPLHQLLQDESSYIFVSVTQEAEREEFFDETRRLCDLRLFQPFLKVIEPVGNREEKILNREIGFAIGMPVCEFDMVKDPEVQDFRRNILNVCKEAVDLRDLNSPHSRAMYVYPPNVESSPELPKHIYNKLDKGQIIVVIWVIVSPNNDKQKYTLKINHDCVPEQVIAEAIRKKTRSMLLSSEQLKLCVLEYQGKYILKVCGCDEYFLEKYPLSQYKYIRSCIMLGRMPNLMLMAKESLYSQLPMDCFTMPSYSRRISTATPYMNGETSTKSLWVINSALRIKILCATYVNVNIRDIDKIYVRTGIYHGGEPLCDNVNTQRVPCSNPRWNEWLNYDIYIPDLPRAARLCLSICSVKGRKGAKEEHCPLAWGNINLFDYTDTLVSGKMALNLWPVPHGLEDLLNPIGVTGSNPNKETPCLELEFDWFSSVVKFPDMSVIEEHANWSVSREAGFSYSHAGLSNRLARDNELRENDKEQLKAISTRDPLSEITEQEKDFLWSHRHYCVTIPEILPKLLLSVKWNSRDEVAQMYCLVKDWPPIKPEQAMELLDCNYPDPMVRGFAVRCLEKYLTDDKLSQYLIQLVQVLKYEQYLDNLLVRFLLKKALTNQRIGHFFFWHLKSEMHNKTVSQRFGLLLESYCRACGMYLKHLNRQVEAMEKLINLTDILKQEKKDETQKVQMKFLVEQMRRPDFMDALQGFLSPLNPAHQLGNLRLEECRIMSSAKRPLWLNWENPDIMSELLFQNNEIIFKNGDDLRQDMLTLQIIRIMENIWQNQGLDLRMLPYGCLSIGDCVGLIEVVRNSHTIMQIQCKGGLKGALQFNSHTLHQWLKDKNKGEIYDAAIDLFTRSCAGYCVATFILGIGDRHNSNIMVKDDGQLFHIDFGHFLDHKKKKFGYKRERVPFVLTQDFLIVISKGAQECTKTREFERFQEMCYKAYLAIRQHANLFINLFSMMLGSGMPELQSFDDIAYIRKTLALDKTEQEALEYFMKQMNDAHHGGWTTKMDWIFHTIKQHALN
- assay.name: Inhibition of PI3Kalpha (unknown origin) at 0.1 uM relative to control
measurement.type: inhibition (%)

smiles	value.unit	quantitative.result
C[C@H]1CC[C@@H](c2nc3cccc(Cl)c3c(=O)n2-c2cccnc2)N1c1ncnc(N)c1C#N	%	18
C[C@H]1CC[C@@H](c2nc3cccc(Cl)c3c(=O)n2-c2cccc(F)c2)N1c1nc(N)nc2[nH]cnc12	%	42
C[C@H]1CC[C@@H](c2nc3cccc(Cl)c3c(=O)n2-c2cccc(F)c2)N1c1ncnc2[nH]ccc12	%	19
C[C@H]1CC[C@@H](c2nc3cccc(Cl)c3c(=O)n2-c2ccccc2)N1c1nc(N)nc2[nH]cnc12	%	22
C[C@H]1CC[C@@H](c2nc3cccc(Cl)c3c(=O)n2N2CCOCC2)N1c1ncnc(N)c1C#N	%	5
N#Cc1c(N)ncnc1N1[C@H](c2nc3cccc(Cl)c3c(=O)n2-c2cccnc2)C[C@@H]2CCCC[C@@H]21	%	17
N#Cc1c(N)ncnc1N1[C@H](c2nc3cccc(Cl)c3c(=O)n2-c2cccc(F)c2)C[C@@H]2CCCC[C@@H]21	%	4
N#Cc1c(N)ncnc1N1[C@H](c2nc3cccc(Cl)c3c(=O)n2N2CCOCC2)C[C@@H]2CCCC[C@@H]21	%	24

###

inhibition values for the compounds below.
- measured.target: Phosphatidylinositol 4,5-bisphosphate 3-kinase catalytic subunit delta isoform (Homo sapiens) (UniProt O00329)
- assay.name: Inhibition of PI3Kdelta (unknown origin) at 0.1 uM using phosphatidylinositol as substrate incubated for 30 mins in presence of ATP by HTRF based assay relative to control
measurement.type: inhibition

smiles	result
O=c1c2c(Cl)cccc2nc([C@@H]2C[C@@H]3CCCC[C@@H]3N2c2nc(Cl)nc3[nH]cnc23)n1-c1ccccc1	1%
C=C1C[C@@H](c2nc3cccc(Cl)c3c(=O)n2-c2ccccc2)N(c2nc(N)nc3[nH]cnc23)C1	96%
C=C1C[C@@H](c2nc3cccc(Cl)c3c(=O)n2-c2ccccc2)N(c2ncnc(N)c2C#N)C1	102%
Nc1ccnc(N2[C@H](c3nc4cccc(Cl)c4c(=O)n3-c3ccccc3)C[C@@H]3CCCC[C@@H]32)n1	-3%
Nc1nc(N2CC(F)(F)C[C@H]2c2nc3cccc(Cl)c3c(=O)n2-c2ccccc2)c2nc[nH]c2n1	50%
O=c1c2c(Cl)cccc2nc([C@@H]2CC(F)(F)CN2c2ncnc3[nH]cnc23)n1-c1ccccc1	34%
C=C1C[C@@H](c2nc3cccc(Cl)c3c(=O)n2-c2ccccc2)N(c2ncnc3[nH]ccc23)C1	59%
Nc1nc(N2[C@H](c3nc4cccc(Cl)c4c(=O)n3-c3ccccc3)C[C@@H]3CCCC[C@@H]32)c2nc[nH]c2n1	6%
O=c1c2c(Cl)cccc2nc([C@@H]2CC(F)(F)CN2c2ncnc3[nH]ccc23)n1-c1ccccc1	26%
C=CCO[C@@H]1C[C@@H](c2nc3cccc(Cl)c3c(=O)n2-c2ccccc2)N(c2nc(N)nc3[nH]cnc23)C1	42%
C=CCO[C@@H]1C[C@@H](c2nc3cccc(Cl)c3c(=O)n2-c2ccccc2)N(c2ncnc(N)c2C#N)C1	47%
O=c1c2c(Cl)cccc2nc([C@@H]2C[C@@H]3CCCC[C@@H]3N2c2ncnc3[nH]cnc23)n1-c1ccccc1	8%
N#Cc1c(N)ncnc1N1[C@H](c2nc3cccc(Cl)c3c(=O)n2-c2ccccc2)C[C@@H]2CCCC[C@@H]21	43%
O=c1c2c(Cl)cccc2nc([C@@H]2CC3(CC3)CN2c2ncnc3[nH]cnc23)n1-c1ccccc1	32%

###

- assay.name: Elimination half life in Sprague-Dawley rat at 5 mg/kg, po incubated for 5 to 24 hrs by LC-MS/MS analysis
- Type: ADME, organism-based
- settings: in vivo, time 5-24 hrs, read-out: beta t1/2 (converted)

smiles	value.unit	half-life
C[C@H]1CC[C@@H](c2nc3cccc(Cl)c3c(=O)n2-c2cccc(F)c2)N1c1ncnc2[nH]cnc12	h	2.06

###

- measured.target: Phosphatidylinositol 4,5-bisphosphate 3-kinase catalytic subunit beta isoform (Homo sapiens)
- assay.name: Inhibition of PI3Kbeta in human 786-0 cells assessed as reduction in AKT phosphorylation at S473 residue incubated for 30 mins
- Type: cell-based

smiles	IC50, nM
C[C@H]1CC[C@@H](c2nc3cccc(Cl)c3c(=O)n2-c2cccc(F)c2)N1c1ncnc2[nH]cnc12	943

###

- measured.target: Phosphatidylinositol 4,5-bisphosphate 3-kinase catalytic subunit delta isoform (Homo sapiens) (UniProt O00329)
- Sequence (whole entry): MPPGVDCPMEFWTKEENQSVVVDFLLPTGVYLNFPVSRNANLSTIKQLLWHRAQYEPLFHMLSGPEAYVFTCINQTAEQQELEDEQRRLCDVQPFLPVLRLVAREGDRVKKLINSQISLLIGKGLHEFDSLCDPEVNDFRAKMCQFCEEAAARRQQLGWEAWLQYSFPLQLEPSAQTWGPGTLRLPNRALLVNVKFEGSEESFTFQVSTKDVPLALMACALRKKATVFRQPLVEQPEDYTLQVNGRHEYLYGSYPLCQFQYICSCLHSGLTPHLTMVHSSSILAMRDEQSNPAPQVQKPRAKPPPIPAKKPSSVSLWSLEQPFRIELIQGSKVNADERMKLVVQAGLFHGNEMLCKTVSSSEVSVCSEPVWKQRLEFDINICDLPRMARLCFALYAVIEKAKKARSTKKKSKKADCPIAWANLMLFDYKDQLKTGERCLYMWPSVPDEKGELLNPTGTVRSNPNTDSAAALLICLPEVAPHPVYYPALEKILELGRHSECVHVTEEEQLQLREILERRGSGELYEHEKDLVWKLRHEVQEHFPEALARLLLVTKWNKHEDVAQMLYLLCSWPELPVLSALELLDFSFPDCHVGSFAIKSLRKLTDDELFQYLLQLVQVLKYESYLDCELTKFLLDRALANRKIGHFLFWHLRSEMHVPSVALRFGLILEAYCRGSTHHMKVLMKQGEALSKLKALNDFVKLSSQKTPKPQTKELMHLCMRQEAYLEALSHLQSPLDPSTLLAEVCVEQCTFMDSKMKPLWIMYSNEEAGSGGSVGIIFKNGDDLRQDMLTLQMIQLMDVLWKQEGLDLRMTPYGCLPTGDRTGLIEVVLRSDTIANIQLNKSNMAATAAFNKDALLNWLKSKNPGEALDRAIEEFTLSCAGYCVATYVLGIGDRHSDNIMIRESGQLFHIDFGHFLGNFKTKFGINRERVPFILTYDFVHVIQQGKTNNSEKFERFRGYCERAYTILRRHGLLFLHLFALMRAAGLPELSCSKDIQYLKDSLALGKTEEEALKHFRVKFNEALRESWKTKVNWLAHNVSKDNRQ
- assay.name: Inhibition of PI3Kdelta (unknown origin) at 0.01 uM using phosphatidylinositol as substrate incubated for 30 mins in presence of ATP by HTRF based assay relative to control

smiles	inhibition (%)
Nc1nc(N2CC3(CC3)C[C@H]2c2nc3cccc(Cl)c3c(=O)n2-c2ccccc2)c2nc[nH]c2n1	8
C=C1C[C@@H](c2nc3cccc(Cl)c3c(=O)n2-c2ccccc2)N(c2ncnc3[nH]ccc23)C1	12
O=c1c2c(Cl)cccc2nc([C@@H]2C[C@@H]3CCCC[C@@H]3N2c2ncnc3[nH]cnc23)n1-c1ccccc1	0
O=c1c2c(Cl)cccc2nc([C@@H]2CC(F)(F)CN2c2ncnc3[nH]cnc23)n1-c1ccccc1	4
C=CCO[C@@H]1C[C@@H](c2nc3cccc(Cl)c3c(=O)n2-c2ccccc2)N(c2ncnc3[nH]ccc23)C1	2
C=C1C[C@@H](c2nc3cccc(Cl)c3c(=O)n2-c2ccccc2)N(c2ncnc(N)c2C#N)C1	79
O=c1c2c(Cl)cccc2nc([C@@H]2C[C@@H]3CCCC[C@@H]3N2c2ncnc3[nH]ccc23)n1-c1ccccc1	1
O=c1c2c(Cl)cccc2nc([C@@H]2C[C@@H]3CCCC[C@@H]3N2c2ncnc3[nH]ncc23)n1-c1ccccc1	-3
